- System: HCC 2998
- RUN DESCRIPTION: NCI tumour cell line growth inhibition, 48 h
Calls of active or inactive are those of the source. Rule as the data show it: active = GI50 up to about 1.1 µM and inactive = higher.
Log the outcome using a class from active, inactive

[[record]]
molecule = "CC1=C(C#N)C(=C(C#N)C#N)OC1(C)Cc1ccccc1 (stereo unspecified)"
group = "inactive"

[[record]]
molecule = "C/C(=N\\O)c1ccc(Nc2nc3ccccc3c3occc23)cc1"
group = "inactive"

[[record]]
molecule = "CCC1OCCN1C(C)C (stereo unspecified)"
group = "inactive"

[[record]]
molecule = "Nc1ncnc(NC2C=C(CO)C(O)C2O)c1[N+](=O)[O-] (stereo unspecified)"
group = "inactive"

[[record]]
molecule = "O=C1C=C2C(=NC34CCCCC3C(c3ccccc3)C3=C(c5ccccc5CC3)N24)c2ccccc21 (stereo unspecified)"
group = "inactive"


# outcome recorded in this test, key = CC1NC(=O)C(C)C(c2ccccc2)N(N=O)C1c1ccccc1 (stereo unspecified)
inactive

# outcome recorded in this test, key = Cc1cc(S(=O)(=O)Nc2nnc3cc(C(F)(F)F)cc(C)n23)c(S)cc1Cl
inactive

# outcome recorded in this test, key = Clc1ccc(C2NN=C3c4ccccc4OCC32)cc1 (stereo unspecified)
inactive

# outcome recorded in this test, key = c1ccc(C(CCN2CCCC2)c2ccccn2)cc1 (stereo unspecified)
inactive
